Ref: paper PMC9090415

# TARGET_DESC: P. falciparum apicoplast DNA polymerase (Pf-apPOL) (Plasmodium falciparum, UniProt Q8ILY1)
# Sequence (Q8ILY1 entry or part of it): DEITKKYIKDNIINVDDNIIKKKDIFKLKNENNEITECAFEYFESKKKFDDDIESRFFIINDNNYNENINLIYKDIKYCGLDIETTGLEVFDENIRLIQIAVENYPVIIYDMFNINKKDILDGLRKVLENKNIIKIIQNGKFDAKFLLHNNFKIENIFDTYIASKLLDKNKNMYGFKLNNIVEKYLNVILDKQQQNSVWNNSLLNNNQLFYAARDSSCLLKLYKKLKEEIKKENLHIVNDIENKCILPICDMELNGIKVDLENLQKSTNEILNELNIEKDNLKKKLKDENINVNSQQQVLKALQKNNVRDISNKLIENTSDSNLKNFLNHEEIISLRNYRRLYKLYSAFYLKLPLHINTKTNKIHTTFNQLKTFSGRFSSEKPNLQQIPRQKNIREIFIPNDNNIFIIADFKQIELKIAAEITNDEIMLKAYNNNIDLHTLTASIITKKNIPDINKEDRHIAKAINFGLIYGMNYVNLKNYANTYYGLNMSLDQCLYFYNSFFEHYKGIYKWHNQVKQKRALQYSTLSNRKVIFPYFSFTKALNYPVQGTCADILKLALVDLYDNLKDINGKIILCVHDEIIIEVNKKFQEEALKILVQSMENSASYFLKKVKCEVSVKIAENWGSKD
# EXPERIMENTAL_PROTOCOL: Fluorescence-based high-throughput DNA polymerase assay (molecular beacon), primary screen and dose-response
# Assay type: biochemical
# CONDITION_DESCRIPTION: DRC-1; 10'; conc 80

- COMPOUND: "Cc1cccc(C2=N/C(=C\\c3ccc([N+](=O)[O-])o3)C(=O)O2)c1 [KU0058960]"
  % inhibition Apo pol 10': "87.9713%"
- COMPOUND: "O=C1NN(c2ccc(Cl)c(Cl)c2)C(=O)/C1=C/c1ccc(-c2ccc3c(c2)C(=O)OC3)o1 [Molecule 90]"
  % inhibition Apo pol 10': "96.7456%"
- COMPOUND: "Cc1ccc(CNC(=O)c2cnn3c(O)cc(CSc4ccc(Cl)cc4)nc23)cc1 [Molecule 99]"
  % inhibition Apo pol 10': "98.3006%"
- COMPOUND: "O=c1nc(/C=C/c2ccc(Br)cc2)oc2ccccc12 [KU0052629]"
  % inhibition Apo pol 10': "96.3156%"
